I'd appreciate it if you could supply apparent Kd (screen) values for the items below.
Target: T1, TNFR1 (Homo sapiens, UniProt P19438)
T1 chain: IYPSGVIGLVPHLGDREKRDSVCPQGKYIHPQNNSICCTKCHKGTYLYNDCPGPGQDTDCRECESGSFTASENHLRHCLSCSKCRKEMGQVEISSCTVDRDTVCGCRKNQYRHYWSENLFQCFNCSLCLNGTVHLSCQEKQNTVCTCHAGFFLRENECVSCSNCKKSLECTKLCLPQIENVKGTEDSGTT
Experiment: yeast display SC50
One number for each entry, in nM.

Here's what some known entries look like.
K30A (designed binder) MTLQELLREEALRRAEAEAFRYALELLAEAFPEQKEYLLDLAEEIESQIRSLSGVDVEDVRKFLDKEWAWVKELLAEHPAELAEVEAARAARLAELRAEVEAKVAA    1.05
L74A (designed binder) MTLQELLREEALRRAEAEAFRYALELLAEKFPEQKEYLLDLAEEIESQIRSLSGVDVEDVRKFLDKEWAWVKEALAEHPAELAEVEAARAARLAELRAEVEAKVAA    1.69
W70P (designed binder) MTLQELLREEALRRAEAEAFRYALELLAEKFPEQKEYLLDLAEEIESQIRSLSGVDVEDVRKFLDKEWAPVKELLAEHPAELAEVEAARAARLAELRAEVEAKVAA    11.4

Continue with the binder presented below.
Consider the binder shown here: V60H (designed binder) MTLQELLREEALRRAEAEAFRYALELLAEKFPEQKEYLLDLAEEIESQIRSLSGVDVEDHRKFLDKEWAWVKELLAEHPAELAEVEAARAARLAELRAEVEAKVAA What is its recorded apparent Kd (screen)? 1.27

Value source: paper PMC12416549
